B1: CPEB3 Ribozyme (parent)
chain: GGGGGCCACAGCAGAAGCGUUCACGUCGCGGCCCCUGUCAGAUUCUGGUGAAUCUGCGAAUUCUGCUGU

Variants of: B1
ASSAY REMARKS: self-cleavage, relative activity (ratio to wild type); higher = more cleavage; co-transcriptional
OBSERVABLE: self-cleavage
Lab note: jot the number down without any unit.

Give its self-cleavage value. Item: A40C A60C 0.34

Give its self-cleavage value. Item: G30C U46A 0.706

Give its self-cleavage value. Item: G1C G37A 0.157

Give its self-cleavage value. Item: G1C A15U 0.229

Give its self-cleavage value. Item: U36G A42U 0.256

Give its self-cleavage value. Item: A40U U53G 0.378

Reference for the values: the RNAGym collection of RNA variant scans (doi:10.7554/elife.80360)
